Data provenance: PubChem BioAssay AID1159580

Assay: chemical genetic growth profiling, strain panel (AID 1159580);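 also: tested at 20 µM; growth read once vehicle control cultures reached saturation at 30 °C; 1 = growth at the plate median or of vehicle wells; lower values mean less growth of the strain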
Settings: S. cerevisiae deletion strains, growth OD, locus YGR135W, strain pre9, hits give low values
The campaign covered roughly 5,500 compounds. About 2,000 (36%) were called active. About 18% were inconclusive and are not listed. Some of the results follow. Where a SMILES comes first, the peptide text is derived from it. Bridges are numbered along the chain shown (N, C = ends). [ ]: non-standard residue; d: D form. The star is where a group is joined. Octanoyl(6-Me) = CCC(C)CCCCC(=O)*; Dab = NCC[CH](N)C(=O)O

COMPOUND	normalized growth
OC(c1cc(C(F)(F)F)nc2c(C(F)(F)F)cccc12)C1CCCCN1 (centres undefined)	0.973 (inactive)
CC(=O)OCC(=O)[C@@]1(O)CCC2C3CCC4=CC(=O)CC[C@]4(C)C3[C@@H](O)C[C@@]21C (some centres undefined)	0.986 (inactive)
NC[C@H]1O[C@H](O[C@H]2[C@H](O)[C@@H](O[C@H]3O[C@H](CO)[C@@H](O)[C@H](N)[C@H]3O)[C@H](N)C[C@@H]2N)[C@H](N)C[C@@H]1O	1.01 (inactive)
O=c1[nH]cnc2c1ncn2C1O[C@H](CO)[C@@H](O)[C@H]1O (some centres undefined)	0.998 (inactive)
CCC(C)CCCCC(=O)NC(CCN)C(=O)NC(C(=O)NC(CCN)C(=O)NC1CCNC(=O)C(C(C)O)NC(=O)C(CCN)NC(=O)C(CCN)NC(=O)C(CC(C)C)NC(=O)C(Cc2ccccc2)NC(=O)C(CCN)NC1=O)C(C)O (centres undefined) ({Octanoyl(6-Me)}-[Dab]T[Dab][Dab][Dab]FL[Dab][Dab]T; lactam 4-C; configuration not given here)	0.998 (inactive)
NC[C@H]1O[C@H](O[C@H]2C(O[C@@H]3O[C@H](CO)[C@@H](O)[C@H]3O)[C@@H](O)[C@H](N)C[C@@H]2N)[C@H](N)[C@@H](O)[C@@H]1O (some centres undefined)	0.985 (inactive)
C[C@]12CCC(=O)C=C1CCC1C2[C@@H](O)C[C@@]2(C)C1CC[C@]2(O)C(=O)COC(=O)CCC(=O)O (some centres undefined)	0.989 (inactive)
COc1c2c(cc3c1OCO3)C13C=C[C@H](OC)CC1N(C2)CC3O (some centres undefined)	0.972 (inactive)
O=C(O)c1cc(=O)c2cccc(O)c2[nH]1	0.986 (inactive)
